Test system: 276233-004-R-J1-PDC KRAS spheroids with HUVEC/MSC, viability;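 further: cells exposed to agents for seven days before viability read; 100% = DMSO vehicle control wells and lower values mean fewer viable cells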
Assay: Anticancer human tumor 276233-004-R-J1-PDC patient-derived colon adenocarcinoma cell line growth inhibition [KRAS2]
Details: second compound 0.1 µM; first compound 1 µM; stronger effect = lower value
Assignment: determine reported viability, T/C for the given molecules.
Answers are plain numbers, in %.

Reference set (5 entries):
molecule | result-units | viability, T/C
O=C(c1cc(Cc2n[nH]c(=O)c3ccccc23)ccc1F)N1CCN(C(=O)C2CC2)CC1 + CNCc1ccccc1-c1csc(C(C)Nc2nc(C)nc3cc(OC)c(OC)cc23)c1 | % | 87.5
CC(C)NCC(C(=O)N1CCN(c2ncnc3c2C(C)CC3O)CC1)c1ccc(Cl)cc1 (stereo unspecified) + C=CC(=O)N1CCN(c2nc(OCC3CCCN3C)nc3c2CCN(c2cccc4cccc(C)c24)C3)CC1CC#N | % | 64.6
CCNC(=O)CC1N=C(c2ccc(Cl)cc2)c2cc(OC)ccc2-n2c(C)nnc21 (stereo unspecified) + C=CC(=O)N1CCN(c2nc(=O)n(-c3c(C)ccnc3C(C)C)c3nc(-c4c(O)cccc4F)c(F)cc23)C(C)C1 | % | 76.6
CC1OCC2(CCN(c3cnc(Sc4ccnc(N)c4Cl)c(N)n3)CC2)C1N (stereo unspecified) + COc1cc2nc(C)nc(NC(C)c3cc(N)cc(C(F)(F)F)c3)c2cc1OC1CCOC1 | % | 78
CC1COCCN1c1cc(-c2ccnn2C)c2ccnc(-c3ccn[nH]3)c2n1 (stereo unspecified) + CC1OCC2(CCN(c3cnc(Sc4ccnc(N)c4Cl)c(N)n3)CC2)C1N | % | 60.9

Quick batch: viability, T/C for everything below.
1. O=C(c1cc(Cc2n[nH]c(=O)c3ccccc23)ccc1F)N1CCN(C(=O)C2CC2)CC1 + C=CC(=O)N1CCN(c2nc(OCC3CCCN3C)nc3c2CCN(c2cccc4cccc(C)c24)C3)CC1CC#N
2. CC1(C)CCC(CN2CCN(c3ccc(C(=O)NS(=O)(=O)c4ccc(NCC5CCOCC5)c([N+](=O)[O-])c4)c(Oc4cnc5[nH]ccc5c4)c3)CC2)=C(c2ccc(Cl)cc2)C1 + CNCc1ccccc1-c1csc(C(C)Nc2nc(C)nc3cc(OC)c(OC)cc23)c1
3. CC1COCCN1c1cc(-c2ccnn2C)c2ccnc(-c3ccn[nH]3)c2n1 (stereo unspecified) + CNCc1ccccc1-c1csc(C(C)Nc2nc(C)nc3cc(OC)c(OC)cc23)c1
4. CC1COCCN1c1cc(-c2ccnn2C)c2ccnc(-c3ccn[nH]3)c2n1 (stereo unspecified) + C=CC(=O)N1CCN(c2nc(OCC3CCCN3C)nc3c2CCN(c2cccc4cccc(C)c24)C3)CC1CC#N
5. COc1cc(Nc2ncc3c(n2)-c2ccc(Cl)cc2C(c2c(F)cccc2OC)=NC3)ccc1C(=O)O + COc1cc2nc(C)nc(NC(C)c3cc(N)cc(C(F)(F)F)c3)c2cc1OC1CCOC1

[A]
87
75.4
70
59
68

[Q] # lookup: viability, T/C of CCNC(=O)CC1N=C(c2ccc(Cl)cc2)c2cc(OC)ccc2-n2c(C)nnc21 (stereo unspecified) + COc1cc2nc(C)nc(NC(C)c3cc(N)cc(C(F)(F)F)c3)c2cc1OC1CCOC1
[A] 55
